# credit: PubChem BioAssay (NCI)

- Test system: HS 578T breast
- Assay Notes: NCI-60 one-dose screen, 48 h (100 = growth as untreated, 0 = no growth, -100 = all killed)
- Condition Parameters: 10 µM unless noted
Compounds without any hit were thinned out: in the full panel of roughly 83,000, 20% have a hit. Activity calls are given as the source filed them. How the source made its calls: active means growth percent below 10; inactive means the rest.
# growth values compiled below

{"Compound": "CC1(C)CC([P+](c2ccccc2)(c2ccccc2)c2ccccc2)=NN1", "growth": "72.1% (inactive)"}
{"Compound": "C=CCOc1ccc(N=NC(C#N)C#N)cc1", "growth": "88.6% (inactive)"}
{"Compound": "CN1c2ccccc2C(C)(C)C12C=Cc1cc(O)ccc1O2 (stereo unspecified)", "growth": "-7.66% (active)"}
{"Compound": "CCCCCCCCCCCCCCCCOP(=O)([O-])OCC[N+](C)(C)C", "growth": "33.7% (inactive)"}
{"Compound": "Cn1c2ccccc2c2nnc(N/N=C/c3ccccn3)nc21", "growth": "53.7% (inactive)"}
{"Compound": "CC(=O)ON=C1C=CC(=C(C#N)c2ccccc2)C=C1", "growth": "15.5% (inactive)"}
{"Compound": "NC(=S)N/N=C\\c1nccc2c(C(F)(F)C(F)(F)C(F)(F)F)cccc12", "growth": "50.7% (inactive)"}
{"Compound": "CCC(CCCN(CC)CCc1ccccc1)OC(=O)c1cc(OC)c(OC)c(OC)c1 (stereo unspecified)", "growth": "81.3% (inactive)"}
{"Compound": "CCC(=O)Sc1ccccc1C(=O)Nc1ccc(Cl)cc1", "growth": "54.5% (inactive)"}
{"Compound": "O=C(/C=C/C=C/c1ccccc1)c1ccco1", "growth": "62.6% (inactive)"}
{"Compound": "CN(C)c1ccc(/C=N/N=C(\\C#N)[S][Sn]([Cl])([c]2ccccc2)[c]2ccccc2)cc1", "growth": "61.7% (inactive)"}

###

- Tested on: IGROV1 ovarian
- Assay Notes: NCI-60 one-dose screen, 48 h
- Condition Parameters: 10 µM unless noted
This is part of a sample that, as a whole, favours compounds with a hit. Of some 83,000 tested, about 20% had one in any assay. The source made the active and inactive calls. Rule for the calls: active = growth percent below 10; inactive = the rest.
Possible outcomes: True (active), False (inactive)

{"Compound": "O=C1c2ccccc2C(=O)c2sc(Nc3cccc(Cl)c3)nc21", "Label Class": "True"}
{"Compound": "CN(C)c1ccc(N=Nc2cccc3ccccc23)cc1", "Label Class": "False"}
{"Compound": "CCCCCCCCCCCCCCNCc1ccccc1", "Label Class": "False"}
{"Compound": "CC(=O)ON=C1C=CC(=C(C#N)c2ccccc2)C=C1", "Label Class": "True"}
{"Compound": "COc1cc(NS(C)(=O)=O)ccc1Nc1c2ccccc2nc2ccccc12", "Label Class": "False"}
{"Compound": "CCCCCCC(C)c1ccccc1O (configuration not stated) (tested in a mixture with another compound)", "Label Class": "False"}
{"Compound": "Oc1c(Cl)c2ccccc2c2ccccc12", "Label Class": "False"}
{"Compound": "O=C1N[C@H]2[C@H](CS[C@H]2CCCCC(=O)N(CCP(c2ccccc2)c2ccccc2)CCP(c2ccccc2)c2ccccc2)N1", "Label Class": "True"}
{"Compound": "Cc1ccnc2c1ccc1c(C)ccnc12", "Label Class": "False"}
{"Compound": "CCOC(=O)c1c(C)[nH]c(CO)c1C", "Label Class": "False"}
{"Compound": "O=C1c2ccccc2C(=O)c2sc(Nc3ccc(Cl)cc3)nc21", "Label Class": "False"}
{"Compound": "COC(=O)[C@@]12OC[C@]34[C@H]([C@@H](O)[C@@H]1O)[C@@]1(C)[C@H](O)C(=O)C=C(C)[C@@H]1C[C@H]3OC(=O)C(OC(C)=O)[C@@H]24 (some centres not stated)", "Label Class": "True"}
{"Compound": "N#Cc1ccc([N+](=O)[O-])o1", "Label Class": "False"}
{"Compound": "Oc1c(Br)c(Br)c(O)c(Br)c1Br", "Label Class": "False"}
{"Compound": "NC(=S)N/N=C/c1ccc(Cl)s1", "Label Class": "False"}
{"Compound": "Nc1nc(N)c2c(ccc3c2ccn3Cc2cccc([N+](=O)[O-])c2)n1", "Label Class": "True"}
{"Compound": "CNc1ccc(N)cc1", "Label Class": "False"}

###

- Test system: MCF7 breast
- Assay Notes: NCI-60 one-dose screen, 48 h
- Condition Parameters: 10 µM
The panel holds about 83,000 compounds, 20% with a hit somewhere; the sample as a whole holds those more often. The source made the active and inactive calls. The calls were made as follows: active = growth percent below 10; inactive = the rest.
Classes used: Yes = active, No = inactive

{"Molecule": "O=[N+]([O-])c1ccc(N=Nc2ccc(O)cc2O)cc1", "Target Under Test": "MCF7 breast", "Label Class": "No"}
{"Molecule": "CCCCCCCCCCCCCCCC[N+](C)(CCO)Cc1cnc[nH]1 (configuration not stated)", "Target Under Test": "MCF7 breast", "Label Class": "Yes"}
{"Molecule": "COc1cc(NS(C)(=O)=O)ccc1Nc1c2ccccc2nc2ccccc12", "Target Under Test": "MCF7 breast", "Label Class": "No"}
{"Molecule": "c1ccc2c(c1)Nc1cc3ccccc3cc1N2", "Target Under Test": "MCF7 breast", "Label Class": "Yes"}
{"Molecule": "N#CC1C(=O)SC2c3ccccc3C(=O)c3ccccc3C12 (configuration not stated)", "Target Under Test": "MCF7 breast", "Label Class": "No"}
{"Molecule": "CCCCCC(CCCCC)C(=O)O", "Target Under Test": "MCF7 breast", "Label Class": "No"}
{"Molecule": "Cc1ccnc2c1ccc1c(C)ccnc12", "Target Under Test": "MCF7 breast", "Label Class": "No"}
{"Molecule": "O[C@H]1[C@H]2c3cc4c(cc3CN3CCC(=C[C@@H]1O)[C@H]23)OCO4", "Target Under Test": "MCF7 breast", "Label Class": "No"}
{"Molecule": "CCC(CCCN(CC)CCc1ccccc1)OC(=O)c1cc(OC)c(OC)c(OC)c1 (configuration not stated)", "Target Under Test": "MCF7 breast", "Label Class": "No"}
{"Molecule": "CN(C)c1ccc(/C=N/N=C(\\C#N)[S][Sn]([Cl])([c]2ccccc2)[c]2ccccc2)cc1", "Target Under Test": "MCF7 breast", "Label Class": "Yes"}
{"Molecule": "Nc1ccc(SSc2ccc(N)cc2)cc1", "Target Under Test": "MCF7 breast", "Label Class": "No"}
{"Molecule": "CN=C(N)N/N=C(\\C)c1ccc2c(c1)Cc1cc(/C(C)=N/NC(N)=NC)ccc1-2", "Target Under Test": "MCF7 breast", "Label Class": "Yes"}

###

- Test system: RPMI-8226 leukemia
- Assay Notes: NCI-60 one-dose screen, 48 h (100 = growth as untreated, 0 = no growth, -100 = all killed)
- Condition Parameters: 10 µM unless noted
About 83,000 compounds went through this panel and 20% of them were active in at least one assay; those are over-represented in the sample as a whole.
// reported growth for each item listed
Measured Quantity: growth (%)

{"Molecule": "CC(C)(C)CC(C)(C)c1ccc(OCCSC(=N)N)cc1", "Measured Quantity": "growth", "Units Text": "%", "Val": 2.8}
{"Molecule": "CCOC(=O)c1c(C)[nH]c(CO)c1C", "Measured Quantity": "growth", "Units Text": "%", "Val": 97.8}
{"Molecule": "CCC1OC(OC)C=CC1=O (configuration not stated)", "Measured Quantity": "growth", "Units Text": "%", "Val": 110}
{"Molecule": "CCN(CC)CCOc1ccc(-c2nc3cc(Cl)ccc3s2)cc1", "Measured Quantity": "growth", "Units Text": "%", "Val": -12.2}
{"Molecule": "Oc1c(Cl)c2ccccc2c2ccccc12", "Measured Quantity": "growth", "Units Text": "%", "Val": 102}
{"Molecule": "N#CSCc1ccc(CSC#N)c(Cl)c1", "Measured Quantity": "growth", "Units Text": "%", "Val": 41.9}
{"Molecule": "CNC(=O)N/N=C/c1ccc([N+](=O)[O-])o1", "Measured Quantity": "growth", "Units Text": "%", "Val": 83.6}

###

- Tested on: OVCAR-5 ovarian
- Assay Notes: NCI-60 one-dose screen, 48 h
- Condition Parameters: 10 µM unless noted
About 83,000 compounds went through this panel and 20% of them were active in at least one assay; those are over-represented in the sample as a whole. Active and inactive are the calls of the source. Rule for the calls: active = growth percent below 10; inactive = the rest.
Outcomes: active, inactive

{"Compound": "COC(=O)[C@@]12OC[C@]34[C@H]([C@@H](O)[C@@H]1O)[C@@]1(C)[C@H](O)C(=O)C=C(C)[C@@H]1C[C@H]3OC(=O)C(OC(C)=O)[C@@H]24 (stereo not given in full)", "Label Class": "active"}
{"Compound": "C=C(Cl)C(=NC(C)(C)C)Nc1ccccc1C", "Label Class": "inactive"}
{"Compound": "COc1ccc(N=N/N=c2\\sc3cc(OC)ccc3n2C)cc1", "Label Class": "inactive"}
{"Compound": "O=C1c2ccccc2C(=O)c2sc(Nc3cccc(Cl)c3)nc21", "Label Class": "active"}
{"Compound": "CCC(=O)Sc1ccccc1C(=O)Nc1ccc(Cl)cc1", "Label Class": "inactive"}
{"Compound": "COc1cc(NS(C)(=O)=O)ccc1Nc1c2ccccc2nc2ccccc12", "Label Class": "inactive"}
{"Compound": "Oc1c(Cl)cc(Cl)c2cccnc12", "Label Class": "inactive"}
{"Compound": "CCCCCCCCCCCCCCCCOP(=O)([O-])OCC[N+](C)(C)C", "Label Class": "inactive"}
{"Compound": "c1ccc2c(c1)Nc1cc3ccccc3cc1N2", "Label Class": "inactive"}
{"Compound": "NC(=S)N/N=C/c1ccc(Cl)s1", "Label Class": "inactive"}
{"Compound": "CCC(CCCN(CC)CCc1ccccc1)OC(=O)c1cc(OC)c(OC)c(OC)c1 (stereo not given)", "Label Class": "inactive"}
{"Compound": "COC(=O)c1nc(=S)[nH]c(C(=O)OC)c1C(=O)c1ccccn1", "Label Class": "inactive"}
{"Compound": "CN(C)c1ccc(/C=N/N=C(\\C#N)[S][Sn]([Cl])([c]2ccccc2)[c]2ccccc2)cc1", "Label Class": "inactive"}
{"Compound": "CN=C(N)N/N=C(\\C)c1ccc2c(c1)Cc1cc(/C(C)=N/NC(N)=NC)ccc1-2", "Label Class": "active"}
{"Compound": "O=C1c2ccccc2C(=O)N1c1ccccc1", "Label Class": "inactive"}
{"Compound": "CC(C)(C)c1ccc(O)c(C2CCCCC2)c1", "Label Class": "inactive"}
{"Compound": "CCCCCCCCCCCCCCCCN(CC)CC", "Label Class": "active"}
{"Compound": "O=[N+]([O-])c1ccc2c(N=Nc3ccc4ccccc4c3O)c(O)cc(S(=O)(=O)O)c2c1", "Label Class": "inactive"}
{"Compound": "N#CSCC(=O)c1ccc(Cl)cc1", "Label Class": "inactive"}
{"Compound": "COc1cc(/C=C(/C)C[N+](=O)[O-])ccc1O", "Label Class": "inactive"}
{"Compound": "Nc1nc(N)c2nc(CNc3ccc(C(=O)NC(CCC(=O)O)C(=O)O)cc3)cnc2n1 (stereo not given)", "Label Class": "inactive"}
{"Compound": "C=CCOc1ccc(N=NC(C#N)C#N)cc1", "Label Class": "inactive"}
{"Compound": "CCOC(=O)c1c(C)[nH]c(CO)c1C", "Label Class": "inactive"}
{"Compound": "COc1ccccc1/C=C\\C(=O)c1ccccc1", "Label Class": "inactive"}
{"Compound": "CNc1ccc(N)cc1", "Label Class": "inactive"}
